measurement-description: Pharmacokinetics of BPC157 in beagle dogs after intravenous and intramuscular administration (plasma)
experimental-conditions: both, beagle, dog, plasma, im, 30 μg/kg
result-type: Tmax (min)
Please reply with the bare figure in min and do not write the unit itself.

Problem: GET /values?readout=Tmax&item= CC(C)C[C@H](NC(=O)CNC(=O)[C@H](C)NC(=O)[C@H](CC(=O)O)NC(=O)[C@H](CC(=O)O)NC(=O)[C@H](C)NC(=O)[C@@H]1CCCN1C(=O)[C@H](CCCCN)NC(=O)CNC(=O)[C@@H]1CCCN1C(=O)[C@@H]1CCCN1C(=O)[C@@H]1CCCN1C(=O)[C@H](CCC(=O)O)NC(=O)CN)C(=O)N[C@H](C(=O)O)C(C)C
Result: 8.67

----------
measurement-description: Pharmacokinetics of BPC157 in beagle dogs after intravenous and intramuscular administration (plasma)
experimental-conditions: both, beagle, dog, plasma, im, 6 μg/kg
result-type: AUC(0-t) (ng·h/mL)
Please reply with the bare figure in ng·h/mL and do not write the unit itself.

Problem: GET /values?readout=AUC(0-t)&item= CC(C)C[C@H](NC(=O)CNC(=O)[C@H](C)NC(=O)[C@H](CC(=O)O)NC(=O)[C@H](CC(=O)O)NC(=O)[C@H](C)NC(=O)[C@@H]1CCCN1C(=O)[C@H](CCCCN)NC(=O)CNC(=O)[C@@H]1CCCN1C(=O)[C@@H]1CCCN1C(=O)[C@@H]1CCCN1C(=O)[C@H](CCC(=O)O)NC(=O)CN)C(=O)N[C@H](C(=O)O)C(C)C
Result: 0.483

----------
measurement-description: Pharmacokinetics of BPC157 in SD rats after intravenous and intramuscular administration (plasma, LC-MS/MS)
experimental-conditions: both, Sprague-Dawley, rat, plasma, iv, 20 μg/kg
result-type: AUC(0-t) (ng·h/mL)
Please reply with the bare figure in ng·h/mL and do not write the unit itself.

Problem: GET /values?readout=AUC(0-t)&item= CC(C)C[C@H](NC(=O)CNC(=O)[C@H](C)NC(=O)[C@H](CC(=O)O)NC(=O)[C@H](CC(=O)O)NC(=O)[C@H](C)NC(=O)[C@@H]1CCCN1C(=O)[C@H](CCCCN)NC(=O)CNC(=O)[C@@H]1CCCN1C(=O)[C@@H]1CCCN1C(=O)[C@@H]1CCCN1C(=O)[C@H](CCC(=O)O)NC(=O)CN)C(=O)N[C@H](C(=O)O)C(C)C [BPC157]
Result: 6.65

----------
measurement-description: Pharmacokinetics of BPC157 in SD rats after intravenous and intramuscular administration (plasma, LC-MS/MS)
experimental-conditions: rat, in vivo, im, 500 ug/kg
result-type: bioavailability (%)
Please reply with the bare figure in % and do not write the unit itself.

Problem: GET /values?readout=bioavailability&item= CC(C)C[C@H](NC(=O)CNC(=O)[C@H](C)NC(=O)[C@H](CC(=O)O)NC(=O)[C@H](CC(=O)O)NC(=O)[C@H](C)NC(=O)[C@@H]1CCCN1C(=O)[C@H](CCCCN)NC(=O)CNC(=O)[C@@H]1CCCN1C(=O)[C@@H]1CCCN1C(=O)[C@@H]1CCCN1C(=O)[C@H](CCC(=O)O)NC(=O)CN)C(=O)N[C@H](C(=O)O)C(C)C
Result: 19.4

----------
measurement-description: Pharmacokinetics of BPC157 in beagle dogs after intravenous and intramuscular administration (plasma)
experimental-conditions: dog, in vivo, iv, 6 ug/kg
result-type: Vd (L/kg)
Please reply with the bare figure in L/kg and do not write the unit itself.

Problem: GET /values?readout=Vd&item= CC(C)C[C@H](NC(=O)CNC(=O)[C@H](C)NC(=O)[C@H](CC(=O)O)NC(=O)[C@H](CC(=O)O)NC(=O)[C@H](C)NC(=O)[C@@H]1CCCN1C(=O)[C@H](CCCCN)NC(=O)CNC(=O)[C@@H]1CCCN1C(=O)[C@@H]1CCCN1C(=O)[C@@H]1CCCN1C(=O)[C@H](CCC(=O)O)NC(=O)CN)C(=O)N[C@H](C(=O)O)C(C)C
Result: 0.243

----------
measurement-description: Pharmacokinetics of BPC157 in beagle dogs after intravenous and intramuscular administration (plasma)
experimental-conditions: both, beagle, dog, plasma, im, 150 μg/kg
result-type: bioavailability (%)
Please reply with the bare figure in % and do not write the unit itself.

Problem: GET /values?readout=bioavailability&item= CC(C)C[C@H](NC(=O)CNC(=O)[C@H](C)NC(=O)[C@H](CC(=O)O)NC(=O)[C@H](CC(=O)O)NC(=O)[C@H](C)NC(=O)[C@@H]1CCCN1C(=O)[C@H](CCCCN)NC(=O)CNC(=O)[C@@H]1CCCN1C(=O)[C@@H]1CCCN1C(=O)[C@@H]1CCCN1C(=O)[C@H](CCC(=O)O)NC(=O)CN)C(=O)N[C@H](C(=O)O)C(C)C
Result: 50.6

----------
measurement-description: Pharmacokinetics of BPC157 in SD rats after intravenous and intramuscular administration (plasma, LC-MS/MS)
experimental-conditions: both, Sprague-Dawley, rat, plasma, iv, 20 μg/kg
result-type: clearance (mL/min/kg)
Please reply with the bare figure in mL/min/kg and do not write the unit itself.

Problem: GET /values?readout=clearance&item= CC(C)C[C@H](NC(=O)CNC(=O)[C@H](C)NC(=O)[C@H](CC(=O)O)NC(=O)[C@H](CC(=O)O)NC(=O)[C@H](C)NC(=O)[C@@H]1CCCN1C(=O)[C@H](CCCCN)NC(=O)CNC(=O)[C@@H]1CCCN1C(=O)[C@@H]1CCCN1C(=O)[C@@H]1CCCN1C(=O)[C@H](CCC(=O)O)NC(=O)CN)C(=O)N[C@H](C(=O)O)C(C)C [BPC157]
Result: 50.1

----------
measurement-description: Pharmacokinetics of BPC157 in SD rats after intravenous and intramuscular administration (plasma, LC-MS/MS)
experimental-conditions: both, Sprague-Dawley, rat, plasma, im, 500 μg/kg
result-type: Tmax

Problem: GET /values?readout=Tmax&item= CC(C)C[C@H](NC(=O)CNC(=O)[C@H](C)NC(=O)[C@H](CC(=O)O)NC(=O)[C@H](CC(=O)O)NC(=O)[C@H](C)NC(=O)[C@@H]1CCCN1C(=O)[C@H](CCCCN)NC(=O)CNC(=O)[C@@H]1CCCN1C(=O)[C@@H]1CCCN1C(=O)[C@@H]1CCCN1C(=O)[C@H](CCC(=O)O)NC(=O)CN)C(=O)N[C@H](C(=O)O)C(C)C
Result: 3 min

----------
measurement-description: Pharmacokinetics of BPC157 in SD rats after intravenous and intramuscular administration (plasma, LC-MS/MS)
experimental-conditions: both, Sprague-Dawley, rat, plasma, im, 100 μg/kg
result-type: Cmax (ng/mL)
Please reply with the bare figure in ng/mL and do not write the unit itself.

Problem: GET /values?readout=Cmax&item= CC(C)C[C@H](NC(=O)CNC(=O)[C@H](C)NC(=O)[C@H](CC(=O)O)NC(=O)[C@H](CC(=O)O)NC(=O)[C@H](C)NC(=O)[C@@H]1CCCN1C(=O)[C@H](CCCCN)NC(=O)CNC(=O)[C@@H]1CCCN1C(=O)[C@@H]1CCCN1C(=O)[C@@H]1CCCN1C(=O)[C@H](CCC(=O)O)NC(=O)CN)C(=O)N[C@H](C(=O)O)C(C)C [BPC157]
Result: 48.9

----------
measurement-description: Pharmacokinetics of BPC157 in beagle dogs after intravenous and intramuscular administration (plasma)
experimental-conditions: both, beagle, dog, plasma, im, 150 μg/kg
result-type: Tmax

Problem: GET /values?readout=Tmax&item= CC(C)C[C@H](NC(=O)CNC(=O)[C@H](C)NC(=O)[C@H](CC(=O)O)NC(=O)[C@H](CC(=O)O)NC(=O)[C@H](C)NC(=O)[C@@H]1CCCN1C(=O)[C@H](CCCCN)NC(=O)CNC(=O)[C@@H]1CCCN1C(=O)[C@@H]1CCCN1C(=O)[C@@H]1CCCN1C(=O)[C@H](CCC(=O)O)NC(=O)CN)C(=O)N[C@H](C(=O)O)C(C)C
Result: 8.17 min

----------
measurement-description: Pharmacokinetics of BPC157 in beagle dogs after intravenous and intramuscular administration (plasma)
experimental-conditions: both, beagle, dog, plasma, iv, 6 μg/kg
result-type: MRT (min)
Please reply with the bare figure in min and do not write the unit itself.

Problem: GET /values?readout=MRT&item= CC(C)C[C@H](NC(=O)CNC(=O)[C@H](C)NC(=O)[C@H](CC(=O)O)NC(=O)[C@H](CC(=O)O)NC(=O)[C@H](C)NC(=O)[C@@H]1CCCN1C(=O)[C@H](CCCCN)NC(=O)CNC(=O)[C@@H]1CCCN1C(=O)[C@@H]1CCCN1C(=O)[C@@H]1CCCN1C(=O)[C@H](CCC(=O)O)NC(=O)CN)C(=O)N[C@H](C(=O)O)C(C)C [BPC157]
Result: 2.49

----------
measurement-description: Pharmacokinetics of BPC157 in beagle dogs after intravenous and intramuscular administration (plasma)
experimental-conditions: both, beagle, dog, plasma, im, 6 μg/kg
result-type: Tmax (min)
Please reply with the bare figure in min and do not write the unit itself.

Problem: GET /values?readout=Tmax&item= CC(C)C[C@H](NC(=O)CNC(=O)[C@H](C)NC(=O)[C@H](CC(=O)O)NC(=O)[C@H](CC(=O)O)NC(=O)[C@H](C)NC(=O)[C@@H]1CCCN1C(=O)[C@H](CCCCN)NC(=O)CNC(=O)[C@@H]1CCCN1C(=O)[C@@H]1CCCN1C(=O)[C@@H]1CCCN1C(=O)[C@H](CCC(=O)O)NC(=O)CN)C(=O)N[C@H](C(=O)O)C(C)C
Result: 6.33
